biological target: SMYD3 (Homo sapiens (Human)); assay: SMYD3 biochemical assay (SMYD3 enzyme assay on MEKK2 protein substrate, 3H-SAM scintillation proximity assay); conditions: read-out: SMYD3 Biochem IC50 (μM)*
Sequence (Q9H7B4 whole entry): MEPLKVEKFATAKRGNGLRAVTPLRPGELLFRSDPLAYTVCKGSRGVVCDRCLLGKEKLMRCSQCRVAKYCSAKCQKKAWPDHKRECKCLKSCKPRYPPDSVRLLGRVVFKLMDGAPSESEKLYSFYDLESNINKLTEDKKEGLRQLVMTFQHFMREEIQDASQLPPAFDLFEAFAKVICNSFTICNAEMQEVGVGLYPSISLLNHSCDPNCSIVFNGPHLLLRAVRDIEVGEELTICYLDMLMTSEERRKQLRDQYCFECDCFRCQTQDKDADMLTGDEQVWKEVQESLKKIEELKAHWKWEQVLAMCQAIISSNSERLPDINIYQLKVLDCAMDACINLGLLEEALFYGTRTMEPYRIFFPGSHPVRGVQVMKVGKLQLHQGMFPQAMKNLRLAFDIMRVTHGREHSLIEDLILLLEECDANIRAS
measurement.name: IC50

structure.string: NCCC(=O)N[C@H]1CC[C@H](NC(=O)c2ncccn2)CC1
IC50: > 100 µM
//
structure.string: N[C@@H](Cc1ccc(O)cc1)C(=O)N1CCC(CNC(=O)c2ccc3c(c2)CC(=O)N3)CC1
IC50: 1.86 µM

[Q] // lookup IC50 for CC(=O)Nc1ccc(S(=O)(=O)N2CCC(NC(=O)c3cccnc3)CC2)cc1
[A] > 100 µM

[Q] Looking for the measured IC50 of CCn1ccc(C(=O)N[C@H]2CC[C@H](N)CC2)n1 , can you help?
[A] 112 µM

[Q] // query IC50 value for entry N[C@H]1CC[C@H](NC(=O)c2ccc3c(c2)OCO3)CC1
[A] > 100 µM

[Q] Which IC50 value is on record for CN1C(=O)Cc2cc(C(=O)NC3CCN(C(=O)[C@@H](N)Cc4c[nH]c5ccccc45)CC3)ccc21 ?
[A] 12.9 µM
